Reported melting point values are given for each entry in this list.
Note: unit °C is implicit; provide only the numeric part.

Worked examples follow.
CCC(N)Cc1c[nH]c2ccccc12 (stereo not given) : 97
O=C(O)CBr : 50
FC(F)(F)C(F)(Cl)Cl : -56.6
CN(C)C(=O)Nc1ccc(Cl)c(Cl)c1 : 158
CC(C)(C)N=C=S : 10.5
CC(C)CN(CC(C)C)CC(C)C : -21.8

Moving on to another molecule below.
Exercise: // query melting point value for entry Cc1ccc(CCc2ccc(C)cc2)cc1
Solution: 85

* * *

With a cut-off of 200 °C, any boiling point strictly below it is called label 1; any boiling point meeting it or above is called label 0.

Past entries and their recorded results:
c1ccc(Cn2ccnc2)cc1 : label 0
C=CCCCBr : label 1
O=C(Cl)C(F)(F)F : label 1
CCCC(CC)c1ccccc1 (stereo unspecified) : label 0
Cc1ccc(CCN)cc1 : label 0
C=Cc1cccc(CC)c1 : label 1
Clc1ccc(Cl)c(Cl)c1 : label 0
CCCCC(=O)O : label 1

Exercise: Consider CCOC(=O)CCBr . Does its boiling point lie strictly below 200 °C?
Solution: label 1
